Assay: Pharmacokinetic studies in mice, plasma levels by LC/MS-MS
Format: in vivo, C57B6/J mice
Details: male, C57B6/J, mouse, plasma; mice, IV 2 mg/kg; read-out: CL (calc)
Outcome measure: clearance

Entry CCC(=O)N1N=C(c2c(-c3ccccc3)c3cc(Cl)ccc3[nH]c2=O)CC1c1ccc(OC)cc1 (stereo not shown) [d.12] , clearance reported as 33 mL/min/kg

* * *

Test: Pharmacokinetic studies in mice, plasma levels by LC/MS-MS
Format: in vivo, C57B6/J mice
Conditions: male, C57B6/J, mouse, plasma; mice, IV 2 mg/kg
Outcome measure: Tmax
Write the figure, then the unit, nothing else.

Just so you know, measured Tmax for CCC(=O)N1N=C(c2c(-c3ccccc3)c3cc(Cl)ccc3[nH]c2=O)CC1c1ccc(OC)cc1 (stereo not shown) [d.12] came out at 5 min

* * *

Assay: Pharmacokinetic studies in mice, plasma levels by LC/MS-MS
Format: in vivo, C57B6/J mice
Details: male, C57B6/J, mouse, plasma; mice, PO 2 mg/kg; read-out: t1/2 (calc)
Outcome measure: half-life (h)
State the answer as a number, implicitly in h.

For record CCC(=O)N1N=C(c2c(-c3ccccc3)c3cc(Cl)ccc3[nH]c2=O)CC1c1ccc(OC)cc1 (stereo not shown) the listed half-life is 4.68

* * *

Test: Pharmacokinetic studies in mice, plasma levels by LC/MS-MS
Format: in vivo, C57B6/J mice
Conditions: male, C57B6/J; mouse plasma, IV 2 mg/kg, 30 min; read-out: Average conc.
Description: Male C57B6/J mice, 8 weeks old were used (Charles River). All procedures were performed in accordance with the Ethical Guidelines of European Communities Council (Directive 2010/63/EU of 22 Sep. 2010) and accepted by the Italian Ministry of Health. All efforts were made to minimize animal suffering and to use the minimal number of animals required to produce reliable results, according to the “3Rs concept”. Animals were group-housed in ventilated cages and had free access to food and water. […]
Outcome measure: concentration at 30 min (ng/mL)
// return numeric value only (unit: ng/mL, not printed)

Given item CCC(=O)N1N=C(c2c(-c3ccccc3)c3cc(Cl)ccc3[nH]c2=O)CC1c1ccc(OC)cc1 (stereo not shown) , the value recorded as its concentration at 30 min is 515

* * *

Test: Pharmacokinetic studies in mice, plasma levels by LC/MS-MS
Assay type: in vivo, C57B6/J mice
Conditions: male, C57B6/J; mouse plasma, IV 2 mg/kg, 15 min; read-out: Average conc.
Outcome measure: concentration at 15 min (ng/mL)
Give the number; ng/mL is assumed, so skip it.

// concentration at 15 min lookup, molecule = CCC(=O)N1N=C(c2c(-c3ccccc3)c3cc(Cl)ccc3[nH]c2=O)CC1c1ccc(OC)cc1 (stereo not shown) , result: 622

* * *

Test: Pharmacokinetic studies in mice, plasma levels by LC/MS-MS
Type: in vivo, C57B6/J mice
Details: male, C57B6/J; mouse plasma, PO 2 mg/kg, 120 min; read-out: Average conc.
Outcome measure: concentration at 120 min
Put down the number, then write its unit next to it.

Measured concentration at 120 min, CCC(=O)N1N=C(c2c(-c3ccccc3)c3cc(Cl)ccc3[nH]c2=O)CC1c1ccc(OC)cc1 (stereo not shown) : 21 ng/mL

* * *

Experiment: Pharmacokinetic studies in mice, plasma levels by LC/MS-MS
Type: in vivo, C57B6/J mice
Conditions: male, C57B6/J; mouse plasma, IV 2 mg/kg, 240 min; read-out: Average conc.
Outcome measure: concentration at 240 min
Record the result as number plus unit.

compound CCC(=O)N1N=C(c2c(-c3ccccc3)c3cc(Cl)ccc3[nH]c2=O)CC1c1ccc(OC)cc1 (stereo not shown) , concentration at 240 min observed: 23 ng/mL

* * *

Items are presented alongside their recorded pEC50.
Tested on: BxPC-3 cells
Experiment: Cell viability assay (CellTiter Glo)
Assay type: cell-based
Conditions: Homo sapiens, 72 h
# log scale: pEC50 equals minus log10 of the concentration in mol/L

Example results:
>>> experimental_result("COc1ccc(-c2ccc(C3CC(c4c(-c5ccccc5)c5cc(Cl)ccc5[nH]c4=O)=NN3C(=O)CCC(=O)O)cc2)cc1 (stereo not drawn)")
4.39
>>> experimental_result("CCC(=O)N1N=C(c2c(-c3ccccc3)c3cc(Cl)ccc3[nH]c2=O)CC1c1ccc(Cl)cc1 (stereo not drawn)")
4.70
>>> experimental_result("CC(=O)N1N=C(c2c(-c3ccccc3)c3cc(Cl)ccc3[nH]c2=O)CC1c1ccc(C(F)(F)F)cc1 (stereo not drawn)")
4.94
>>> experimental_result("O=C(O)CCC(=O)N1N=C(c2c(-c3ccccc3)c3cc(Cl)ccc3[nH]c2=O)CC1c1ccc(Br)cc1 (stereo not drawn)")
4.32
>>> experimental_result("O=C(O)CCC(=O)N1N=C(c2c(Cc3ccccc3)c3cc(Cl)ccc3[nH]c2=O)CC1c1ccc(Br)cc1 (stereo not drawn)")
4.63

Reported pEC50 of COc1ccc(C2CC(c3c(Cc4ccccc4)c4cc(Cl)ccc4[nH]c3=O)=NN2C(=O)CCC(=O)O)cc1F (stereo not drawn) : 4.10

Lab book: pEC50 of CC(=O)N1N=C(c2c(-c3ccccc3)c3cc(Cl)ccc3[nH]c2=O)CC1c1ccc(C)cc1 (stereo not drawn) noted as 4.82

The measured pEC50 associated with CCC(=O)N1N=C(c2c(-c3ccccc3)c3cc(Cl)ccc3[nH]c2=O)CC1c1ccc(OC)cc1 (stereo not drawn) reads 4.72

Form field pEC50, entry Cn1ncc2cc(C3CC(c4c(Cc5ccccc5)c5cc(Cl)ccc5[nH]c4=O)=NN3C(=O)CCC(=O)O)ccc21 (stereo not drawn) : 4.09

CC(=O)N1N=C(c2c(-c3ccccc3)c3cc(Cl)ccc3[nH]c2=O)CC1c1ccc2c(cnn2C)c1 (stereo not drawn) has a reported pEC50 of 4.68

Reported pEC50 for CC(=O)N1N=C(c2c(-c3ccccc3)c3cc(Cl)ccc3[nH]c2=O)CC1c1ccc(-c2ccc(Br)cc2)cc1 (stereo not drawn) was 4.55

// sample CCC(=O)N1N=C(c2c(-c3ccccc3)c3cc(Cl)ccc3[nH]c2=O)CC1c1ccccc1 (stereo not drawn) , its pEC50 was 4.86

Item: CCCn1cc(-c2ccc(C3CC(c4c(-c5ccccc5)c5cc(Cl)ccc5[nH]c4=O)=NN3C(=O)CCC(=O)O)cc2)cn1 (stereo not drawn) | pEC50: 4.13

* * *

Assay: Pharmacokinetic studies in mice, plasma levels by LC/MS-MS
Type: in vivo, C57B6/J mice
Settings: male, C57B6/J; mouse plasma, IV 2 mg/kg, 5 min; read-out: Average conc.
Experimental: Male C57B6/J mice, 8 weeks old were used (Charles River). All procedures were performed in accordance with the Ethical Guidelines of European Communities Council (Directive 2010/63/EU of 22 Sep. 2010) and accepted by the Italian Ministry of Health. All efforts were made to minimize animal suffering and to use the minimal number of animals required to produce reliable results, according to the “3Rs concept”. Animals were group-housed in ventilated cages and had free access to food and water. […]
Outcome measure: concentration at 5 min (ng/mL)
Please respond with the number in ng/mL and leave the unit unwritten.

Measured concentration at 5 min of CCC(=O)N1N=C(c2c(-c3ccccc3)c3cc(Cl)ccc3[nH]c2=O)CC1c1ccc(OC)cc1 (stereo not shown) : 973

* * *

Assay: Pharmacokinetic studies in mice, plasma levels by LC/MS-MS
Type: in vivo, C57B6/J mice
Settings: male, C57B6/J; mouse plasma, PO 2 mg/kg, 240 min; read-out: Average conc.
Outcome measure: concentration at 240 min (ng/mL)
Just the number in ng/mL, nothing appended.

The measured concentration at 240 min associated with CCC(=O)N1N=C(c2c(-c3ccccc3)c3cc(Cl)ccc3[nH]c2=O)CC1c1ccc(OC)cc1 (stereo not shown) reads 7

* * *

Test: Pharmacokinetic studies in mice, plasma levels by LC/MS-MS
Format: in vivo, C57B6/J mice
Conditions: male, C57B6/J; mouse plasma, PO 2 mg/kg, 0 min; read-out: Average conc.
Experimental: Male C57B6/J mice, 8 weeks old were used (Charles River). All procedures were performed in accordance with the Ethical Guidelines of European Communities Council (Directive 2010/63/EU of 22 Sep. 2010) and accepted by the Italian Ministry of Health. All efforts were made to minimize animal suffering and to use the minimal number of animals required to produce reliable results, according to the “3Rs concept”. Animals were group-housed in ventilated cages and had free access to food and water. […]
Outcome measure: concentration at 0 min (ng/mL)
Please state the figure in ng/mL; there is no need to write the unit.

// recorded concentration at 0 min for CCC(=O)N1N=C(c2c(-c3ccccc3)c3cc(Cl)ccc3[nH]c2=O)CC1c1ccc(OC)cc1 (stereo not shown) [d.12] : 0

* * *

Target: BRC4/RAD51 interaction (Homo sapiens, UniProt Q06609)
Construct: Life Technologies (BRC4 peptide)
Sequence (Q06609 1-339): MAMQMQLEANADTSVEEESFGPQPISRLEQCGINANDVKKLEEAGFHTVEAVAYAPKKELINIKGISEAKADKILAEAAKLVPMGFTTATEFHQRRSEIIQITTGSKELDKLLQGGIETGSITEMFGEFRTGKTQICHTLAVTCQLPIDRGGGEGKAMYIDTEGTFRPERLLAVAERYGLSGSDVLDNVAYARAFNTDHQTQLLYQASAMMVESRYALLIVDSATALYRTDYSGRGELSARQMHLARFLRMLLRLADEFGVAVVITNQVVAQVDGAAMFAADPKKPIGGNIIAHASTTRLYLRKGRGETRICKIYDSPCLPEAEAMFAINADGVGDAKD
Experiment: Competitive ELISA assay, disruption of BRC4/RAD51 interaction
Conditions: human Rad51, biotinylated BRC4 peptide
EC50 less than 30 µM is True; EC50 greater than or equal to 30 µM is False.

>>> class("CCn1cc2cc(-c3ccc(C4CC(c5c(Cc6ccccc6)c6cc(Cl)ccc6[nH]c5=O)=NN4C(=O)CCC(=O)O)cc3)ccc2n1 (stereo not drawn)")
"False"
>>> class("CCCn1ncc2cc(C3CC(c4c(-c5ccccc5)c5cc(Cl)ccc5[nH]c4=O)=NN3C(C)=O)ccc21 (stereo not drawn)")
"True"
>>> class("O=C(O)CCC(=O)N1N=C(c2c(-c3ccccc3)c3cc(Cl)ccc3[nH]c2=O)CC1c1ccc(-c2ccc(F)cc2)cc1 (stereo not drawn)")
"True"

Challenge: I wonder whether CCn1ncc2cc(-c3ccc(C4CC(c5c(-c6ccccc6)c6cc(Cl)ccc6[nH]c5=O)=NN4C(=O)CCC(=O)O)cc3)ccc21 (stereo not drawn) has EC50 below 30 µM. Can you tell?
Response given: True

Challenge: API: query returns whether the compound falls strictly under 30 µM in EC50. Query: NCCC(=O)N1N=C(c2c(-c3ccccc3)c3cc(Cl)ccc3[nH]c2=O)CC1c1ccc(F)cc1 (stereo not drawn)
Response given: False
